Recorded values, source patent US9957264B2.

- measurement target: JAK2 (recombinant purified GST-tagged catalytic domain) (Homo sapiens (Human), UniProt O60674)
- Sequence (O60674 849-1124): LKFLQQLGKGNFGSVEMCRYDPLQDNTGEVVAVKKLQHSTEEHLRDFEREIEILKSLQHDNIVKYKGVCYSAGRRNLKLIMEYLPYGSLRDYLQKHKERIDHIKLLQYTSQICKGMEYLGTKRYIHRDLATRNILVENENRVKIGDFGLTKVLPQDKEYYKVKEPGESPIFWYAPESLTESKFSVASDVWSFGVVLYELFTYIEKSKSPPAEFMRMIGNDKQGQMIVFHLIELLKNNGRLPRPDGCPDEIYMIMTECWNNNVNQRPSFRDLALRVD
- assay explanation: Jak Biochemical HTRF Assay (JAK2)
- condition context: [ATP] 8.5 μM
pIC50: −log10 of the molar value.
Quick rule: pIC50 of at least 9 means y, below that means n.

# input Does the reported pIC50 for CC(C)OC(=O)[C@@H]1CC[C@@](CC#N)(n2nc(Nc3ccc4c(c3)CN(C(C)(C)C)S4(=O)=O)c3c(=O)[nH]ccc32)CO1 fall at or above the 9 mark?
# output y

# input Dear colleague, could you confirm whether CC(c1ccc(Nc2nn([C@]3(CC#N)CC[C@@H](C(=O)OC(C)(C)C)OC3)c3cc[nH]c(=O)c23)cc1)N1CCCC1 (single isomer, unassigned) [Example 5-212] has pIC50 at or above 9?
# output y

# input Record CCOC(=O)C(C)(C)C(O)(c1ccc(Nc2nn([C@]3(CC#N)CCCOC3)c3cc[nH]c(=O)c23)cc1)C(F)(F)F (single isomer, unassigned) [Example 5-112] ; criterion: pIC50 no lower than 9. Met?
# output n

# input Entry CC(C)(C)OC(=O)N1CCC(CC#N)(n2nc(Nc3ccc([C@H](O)C(F)(F)F)cc3)c3c(=O)[nH]ccc32)CC1 (single isomer, unassigned) : is its pIC50 no less than 9?
# output y

# input I'd appreciate it if you could say whether CC(C)(C)OC(=O)N1CCC(CC#N)(n2nc(Nc3ccc(C4(C(F)(F)F)CCN(Cc5ccccc5)C4)cc3)c3c(=O)[nH]ccc32)CC1 (single isomer, unassigned) [Example 5-281] has pIC50 at least equal to 9.
# output n

# input Is reported pIC50 greater than or equal to 9 here: CN(C)S(=O)(=O)c1ccc(Nc2nn(C3(CC#N)CCN(C(=O)OCC(C)(C)C)CC3)c3cc[nH]c(=O)c23)cc1
# output n

# input pIC50 >= 9 for CN(C)S(=O)(=O)c1ccc(Nc2nn(C3(CC#N)CCN(C(=O)c4cccc(Cl)c4)CC3)c3cc[nH]c(=O)c23)cc1 ?
# output n

# input For this compound, is measured pIC50 9 or higher? CC(C)(C)S(=O)(=O)c1ccc(Nc2nn([C@]3(CC#N)CCOC3)c3cc[nH]c(=O)c23)cc1 (single isomer, unassigned)
# output n

Now let's try a different one.
# input Is pIC50 for CCNC(c1ccc(Nc2nn([C@@]3(CC#N)CCCC[C@H]3F)c3cc[nH]c(=O)c23)cc1)C(F)(F)F (single isomer, unassigned) [Example 5-174] at or above 9?
# output y

====

- measurement target: JAK1 (recombinant purified GST-tagged catalytic domain) (Homo sapiens (Human), UniProt P23458)
- Sequence (P23458 875-1153): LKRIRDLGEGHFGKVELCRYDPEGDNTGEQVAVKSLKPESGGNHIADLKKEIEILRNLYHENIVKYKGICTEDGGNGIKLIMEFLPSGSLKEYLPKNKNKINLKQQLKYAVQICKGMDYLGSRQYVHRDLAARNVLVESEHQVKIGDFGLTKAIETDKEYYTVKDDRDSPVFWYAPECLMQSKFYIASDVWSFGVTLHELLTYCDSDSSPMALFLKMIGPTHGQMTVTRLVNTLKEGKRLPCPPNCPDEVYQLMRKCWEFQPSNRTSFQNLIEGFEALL
- assay explanation: Jak Biochemical HTRF Assay (JAK1)
- condition context: [ATP] 31.8 μM
assay metric: pIC50
Answers are plain numbers, as −log10 of the molar value.

Hi, could you look up pIC50 for each item in my list?
1. COC1CN([C@H]2CC[C@@](CC#N)(n3nc(Nc4ccc(Cl)c(F)c4)c4c(=O)[nH]ccc43)CC2)C1
2. COCC(=O)N1CCC(CC#N)(n2nc(Nc3ccc(S(=O)(=O)N(C)C)cc3)c3c(=O)[nH]ccc32)CC1
3. CC(C)S(=O)(=O)c1ccc(Nc2nn(C3(CC#N)CCN(C(=O)C(C)(F)F)CC3)c3cc[nH]c(=O)c23)cc1
4. CC(C)(C)N[C@@H](c1ccc(Nc2nn([C@@]3(CC#N)CCOC[C@H]3F)c3cc[nH]c(=O)c23)cc1)C(F)(F)F (single isomer, unassigned)
5. CCN1Cc2cc(Nc3nn(C4(CC#N)CCN(C(=O)OC)CC4)c4cc[nH]c(=O)c34)ccc2S1(=O)=O

# output
1. 6.90
2. 9.62
3. 10.10
4. 8.58
5. 10.22
